Test system: ORYZA SATIVA, L. TEBONNET
PROCEDURE_SUMMARY: Rice tolerance to post-transplant applications under flooded paddy conditions, ORYSAT (Rice, Tebonnet)
Type: in vivo
TEST_PARAMETERS: 0.500 kg/ha, post-transplant rice, 3-4 weeks after treatment
PARAMETER: Herbicidal effect rating, ORYSAT
Please give only the number in your answer, with no unit.

Suppose we examine the compound COC(=O)Cn1c(=O)n(C)c(=O)n(-c2cc(Oc3c(Cl)cc(Cl)cc3Cl)ccc2[N+](=O)[O-])c1=O [Compound 33] ; what Herbicidal effect rating, ORYSAT value has been reported?
4.0

Suppose we examine the compound COC(=O)Cn1c(=O)n(C)c(=O)n(-c2cc(Oc3c(Cl)cccc3Cl)ccc2[N+](=O)[O-])c1=O [Compound 37] ; what Herbicidal effect rating, ORYSAT value has been reported?
2.0

Suppose we examine the compound COC(=O)Cn1c(=O)n(C)c(=O)n(-c2cc(Oc3ccccn3)ccc2[N+](=O)[O-])c1=O [Compound 38] ; what Herbicidal effect rating, ORYSAT value has been reported?
0.0

Suppose we examine the compound COC(=O)Cn1c(=O)n(CC(=O)OC)c(=O)n(-c2cc(Oc3ccc(Cl)cc3Cl)ccc2[N+](=O)[O-])c1=O [Compound 19] ; what Herbicidal effect rating, ORYSAT value has been reported?
1.0
